Molecular target: T1, Phospho-KIT (Tyr719) in GIST T1 cells (Homo sapiens, UniProt P10721, DEL560-578)
T1 construct: endogenous in cells
T1 sequence (P10721 with tags, fused parts or gaps DEL560-578): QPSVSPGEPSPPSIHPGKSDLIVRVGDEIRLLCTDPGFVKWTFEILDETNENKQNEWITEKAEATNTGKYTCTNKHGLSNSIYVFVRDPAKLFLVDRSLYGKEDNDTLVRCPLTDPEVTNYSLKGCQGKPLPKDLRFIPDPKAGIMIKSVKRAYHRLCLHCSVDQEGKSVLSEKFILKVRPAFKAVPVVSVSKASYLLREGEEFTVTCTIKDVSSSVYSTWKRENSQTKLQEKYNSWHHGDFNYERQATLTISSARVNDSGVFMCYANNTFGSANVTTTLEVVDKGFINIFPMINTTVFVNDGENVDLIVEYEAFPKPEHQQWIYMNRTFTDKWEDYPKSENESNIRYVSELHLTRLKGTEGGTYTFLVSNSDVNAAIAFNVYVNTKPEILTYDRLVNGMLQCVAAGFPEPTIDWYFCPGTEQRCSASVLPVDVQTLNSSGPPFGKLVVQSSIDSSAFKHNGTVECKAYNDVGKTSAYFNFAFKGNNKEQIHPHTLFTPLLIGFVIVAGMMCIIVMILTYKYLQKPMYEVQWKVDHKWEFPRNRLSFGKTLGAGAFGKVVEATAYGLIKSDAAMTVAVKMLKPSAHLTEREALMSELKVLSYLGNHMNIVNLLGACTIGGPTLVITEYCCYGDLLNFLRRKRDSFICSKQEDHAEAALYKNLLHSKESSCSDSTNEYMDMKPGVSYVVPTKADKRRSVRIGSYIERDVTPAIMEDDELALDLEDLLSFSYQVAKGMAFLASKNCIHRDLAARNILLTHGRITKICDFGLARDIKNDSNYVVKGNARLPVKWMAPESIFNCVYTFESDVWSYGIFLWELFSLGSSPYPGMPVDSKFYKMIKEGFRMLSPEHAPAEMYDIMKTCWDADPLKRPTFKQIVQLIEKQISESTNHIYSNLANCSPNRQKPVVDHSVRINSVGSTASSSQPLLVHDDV
Assay: GIST T1 KIT Western Blot
Settings: 4 hours, read-out: pKIT suppression by western blot analysi GIST T1
READOUT_NAME: IC50

structure_as_smiles=CCn1c(=O)c(-c2cc(NC(=O)Nc3cc(F)cc(CN4CCN(C)CC4)c3)c(F)cc2Cl)cc2cnc(NC)cc21 readout_name=IC50 recorded_result="< 10 nM"
structure_as_smiles=CCn1c(=O)c(-c2cc(NC(=O)Nc3ccccc3)c(F)cc2Cl)cc2cnc(N)cc21 readout_name=IC50 recorded_result="< 10 nM"

---

Biological target: Phospho-KIT (Tyr719) in GIST430 cells (Homo sapiens, UniProt P10721)
Sequence (P10721 with tags, fused parts or gaps DEL560-576/V654A, form open): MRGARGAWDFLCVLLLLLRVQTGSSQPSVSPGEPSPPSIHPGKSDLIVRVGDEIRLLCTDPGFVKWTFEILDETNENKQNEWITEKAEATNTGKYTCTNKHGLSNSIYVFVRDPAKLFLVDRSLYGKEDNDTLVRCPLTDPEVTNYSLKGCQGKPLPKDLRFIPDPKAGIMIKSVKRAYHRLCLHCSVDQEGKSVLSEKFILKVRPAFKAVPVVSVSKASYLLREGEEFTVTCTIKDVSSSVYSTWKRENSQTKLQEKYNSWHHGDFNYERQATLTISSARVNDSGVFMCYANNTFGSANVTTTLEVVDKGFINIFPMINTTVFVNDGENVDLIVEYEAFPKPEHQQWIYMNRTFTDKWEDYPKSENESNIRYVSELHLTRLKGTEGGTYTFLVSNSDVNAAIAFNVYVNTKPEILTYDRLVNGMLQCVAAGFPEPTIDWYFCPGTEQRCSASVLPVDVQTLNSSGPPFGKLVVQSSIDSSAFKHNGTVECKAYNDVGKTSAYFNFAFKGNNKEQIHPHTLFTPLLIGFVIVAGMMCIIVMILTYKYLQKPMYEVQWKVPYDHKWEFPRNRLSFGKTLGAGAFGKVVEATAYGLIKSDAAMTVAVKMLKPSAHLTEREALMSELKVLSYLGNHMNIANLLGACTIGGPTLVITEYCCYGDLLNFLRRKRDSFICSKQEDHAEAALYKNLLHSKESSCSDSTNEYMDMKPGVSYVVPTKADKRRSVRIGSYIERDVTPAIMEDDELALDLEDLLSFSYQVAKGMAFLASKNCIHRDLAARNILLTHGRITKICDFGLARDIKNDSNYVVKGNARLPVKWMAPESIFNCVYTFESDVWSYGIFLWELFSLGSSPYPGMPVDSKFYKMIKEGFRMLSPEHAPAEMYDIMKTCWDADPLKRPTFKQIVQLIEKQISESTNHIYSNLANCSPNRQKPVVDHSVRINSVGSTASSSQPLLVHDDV
Test: GIST430 KIT Western Blot
Settings: 4 hours, read-out: pKIT suppression by western blot analysi GIST430
pIC50: −log10 of the molar value.
READOUT_NAME: pIC50

structure_as_smiles=CCn1c(=O)c(-c2cc(NC(=O)Nc3cccc4ccccc34)c(F)cc2C)cc2cnc(NC)cc21 readout_name=pIC50 recorded_result="> 8.00"
structure_as_smiles=CCn1c(=O)c(-c2cc(NC(=O)Nc3ccc(F)c(CN4CCN(C)CC4)c3)c(F)cc2Cl)cc2cnc(NC)cc21 readout_name=pIC50 recorded_result="6.00 to 7.00"
structure_as_smiles=CCn1c(=O)c(-c2cc(NC(=O)Nc3cc(F)ccc3F)c(F)cc2C)cc2cnc(NC)cc21 readout_name=pIC50 recorded_result="7.00 to 8.00"
structure_as_smiles=CCn1c(=O)c(-c2cc(NC(=O)Nc3ccccc3)c(F)cc2F)cc2cnc(NC(C)=O)cc21 readout_name=pIC50 recorded_result="7.00 to 8.00"
structure_as_smiles=CNc1cc2c(cn1)cc(-c1cc(NC(=O)Nc3ccccc3)c(F)cc1Cl)c(=O)n2C(C)C readout_name=pIC50 recorded_result="7.00 to 8.00"
structure_as_smiles=CCn1c(=O)c(-c2cc(NC(=O)Nc3ccccc3)c(F)cc2Br)cc2cnc(NCCOC)cc21 readout_name=pIC50 recorded_result="7.00 to 8.00"
structure_as_smiles=CNc1cc2c(cn1)cc(-c1cc(NC(=O)Nc3cccc(F)c3)c(F)cc1Cl)c(=O)n2C(C)C readout_name=pIC50 recorded_result="7.00 to 8.00"
structure_as_smiles=CCn1c(=O)c(-c2cc(NC(=O)Nc3cc(F)ccc3F)c(F)cc2Cl)cc2cnc(NC)cc21 readout_name=pIC50 recorded_result="7.00 to 8.00"
structure_as_smiles=CCn1c(=O)c(-c2cc(NC(=O)Nc3ccccc3)c(F)cc2C)cc2cnc(NC(=O)N(C)C)cc21 readout_name=pIC50 recorded_result="7.00 to 8.00"
structure_as_smiles=CCn1c(=O)c(-c2cc(NC(=O)Nc3ccccc3)c(F)cc2Cl)cc2cnc(NC(=O)N3CC(O)C3)cc21 readout_name=pIC50 recorded_result="7.00 to 8.00"
structure_as_smiles=CCn1c(=O)c(-c2cc(NC(=O)Nc3ccccc3F)c(F)cc2Cl)cc2cnc(NC)cc21 readout_name=pIC50 recorded_result="7.00 to 8.00"
structure_as_smiles=CCn1c(=O)c(-c2cc(NC(=O)Nc3ccccc3)c(F)cc2Cl)cc2cnc(NC(=O)OC)cc21 readout_name=pIC50 recorded_result="7.00 to 8.00"
structure_as_smiles=CCn1c(=O)c(-c2cc(NC(=O)Nc3cccc(F)c3)c(F)cc2Cl)cc2cnc(N)cc21 readout_name=pIC50 recorded_result="7.00 to 8.00"
structure_as_smiles=CNc1cc2c(cn1)cc(-c1cc(NC(=O)Nc3csc4ccccc34)c(F)cc1F)c(=O)n2C readout_name=pIC50 recorded_result="7.00 to 8.00"
structure_as_smiles=CCn1c(=O)c(-c2cc(NC(=O)Nc3ccccc3)c(F)cc2Cl)cc2cnc(NC(=O)N(C)C)cc21 readout_name=pIC50 recorded_result="> 8.00"
structure_as_smiles=CCn1c(=O)c(-c2cc(NC(=O)Nc3cc(F)cc(F)c3)c(F)cc2Cl)cc2cnc(NC)cc21 readout_name=pIC50 recorded_result="7.00 to 8.00"
structure_as_smiles=CCn1c(=O)c(-c2cc(NC(=O)Nc3ccccc3)c(F)cc2Cl)cc2cnc(NC)cc21 readout_name=pIC50 recorded_result="7.00 to 8.00"
structure_as_smiles=CCn1c(=O)c(-c2cc(NC(=O)Nc3cc(F)cc(CN4CCN(C)CC4)c3)c(F)cc2Cl)cc2cnc(NC)cc21 readout_name=pIC50 recorded_result="7.00 to 8.00"
structure_as_smiles=CCn1c(=O)c(-c2cc(NC(=O)Nc3ccccc3)c(F)cc2Br)cc2cnc(NC(C)=O)cc21 readout_name=pIC50 recorded_result="> 8.00"
structure_as_smiles=CCn1c(=O)c(-c2cc(NC(=O)Nc3cc(F)cc(F)c3)c(F)cc2Cl)cc2cnc(NC(C)=O)cc21 readout_name=pIC50 recorded_result="> 8.00"
structure_as_smiles=CCn1c(=O)c(-c2cc(NC(=O)Nc3cccc(F)c3)c(F)cc2F)cc2cnc(NC)cc21 readout_name=pIC50 recorded_result="7.00 to 8.00"
structure_as_smiles=CCn1c(=O)c(-c2cc(NC(=O)Nc3cccc(F)c3)c(F)cc2Cl)cc2cnc(NC)cc21 readout_name=pIC50 recorded_result="> 8.00"
structure_as_smiles=CCn1c(=O)c(-c2cc(NC(=O)Nc3cccc(F)c3)c(F)cc2Br)cc2cnc(NC)cc21 readout_name=pIC50 recorded_result="> 8.00"
structure_as_smiles=CCn1c(=O)c(-c2cc(NC(=O)Nc3ccccc3)c(F)cc2F)cc2cnc(NC)cc21 readout_name=pIC50 recorded_result="6.00 to 7.00"
structure_as_smiles=CCn1c(=O)c(-c2cc(NC(=O)Nc3ccccc3)c(F)cc2Cl)cc2cnc(N)cc21 readout_name=pIC50 recorded_result="> 8.00"
structure_as_smiles=CCn1c(=O)c(-c2cc(NC(=O)Nc3cc(F)cc(F)c3)c(F)cc2C)cc2cnc(NC)cc21 readout_name=pIC50 recorded_result="7.00 to 8.00"
structure_as_smiles=CCn1c(=O)c(-c2cc(NC(=O)Nc3cccc(CN4CCN(C)CC4)c3)c(F)cc2Cl)cc2cnc(NC)cc21 readout_name=pIC50 recorded_result="7.00 to 8.00"
structure_as_smiles=CCn1c(=O)c(-c2cc(NC(=O)Nc3cccc4ccccc34)c(F)cc2Cl)cc2cnc(NC)cc21 readout_name=pIC50 recorded_result="> 8.00"
structure_as_smiles=CCn1c(=O)c(-c2cc(NC(=O)Nc3ccccc3)c(F)cc2Br)cc2cnc(N)cc21 readout_name=pIC50 recorded_result="7.00 to 8.00"
